Test system: Mycobacterium tuberculosis
Method: Antimycobacterial activity against Mycobacterium tuberculosis H37Rv ATCC 27294 after 28 days by serial dilution method
Type: functional
Reported conditions: Mycobacterium tuberculosis, H37Rv ATCC 27294, 672 h
Could you please mark Fulfilled for values of MIC below 2 µM and Not fulfilled for values at or above it?

Look over these answered cases.
# Item smiles, Answer label
data = [
    ("O=C(c1ccccc1)c1ccc(NC(=O)c2cc(Br)ccc2O)cc1", "Not fulfilled"),
    ("O=C(NCCCl)Oc1ccc(Cl)cc1C(=O)Nc1ccc(C(F)(F)F)cc1", "Fulfilled"),
    ("O=C(NCCCCl)Oc1ccc(Cl)cc1C(=O)Nc1ccc(C(=O)c2ccccc2)cc1", "Not fulfilled"),
]

Consider the record given below.
Decide: MIC of `O=C(c1ccccc1)c1ccc(NC(=O)c2cc(Cl)ccc2O)cc1` strictly below 2 µM?
Not fulfilled

---

Method: Selectivity index, ratio of IC50 for human MONO-MAC-6 cells to MIC for Mycobacterium tuberculosis H37Rv ATCC 27294
Format: toxicity
Reported conditions: read-out: Selectivity Index
Reported selectivity ratio values for the following compounds.
Form: value (number only, do not type unit).

# input compound: `O=C(Nc1ccc(Cl)c(Cl)c1)c1cc(Cl)ccc1O` ; wanted: its selectivity ratio
2.3

selectivity ratio for `O=C(NCCCl)Oc1ccc(Cl)cc1C(=O)Nc1ccc(C(=O)c2ccccc2)cc1` ?
4.3

Return reported selectivity ratio; argument: `O=C(NCCCl)Oc1ccc(Br)cc1C(=O)Nc1ccc(Cl)c(Cl)c1`
34.5

Can you look up the measured selectivity ratio of `O=C(Nc1ccc(Cl)c(Cl)c1)c1cc(Br)ccc1O` for me?
2.5

---

Known MIC of a selection of compounds
Tested on: Mycobacterium tuberculosis
Method: Antimycobacterial activity against Mycobacterium tuberculosis H37Rv ATCC 27294 after 28 days by serial dilution method
Assay type: functional
Reported conditions: Mycobacterium tuberculosis, H37Rv ATCC 27294, 672 h
Give the quantity in µM, number only.

Give Mycobacterium tuberculosis MIC for `O=C(Nc1ccc(Cl)c(Cl)c1)c1cc(Br)ccc1O`
1.4

---

Method: Selectivity index, ratio of IC50 for human MONO-MAC-6 cells to MIC for Mycobacterium abscessus ATCC 19977
Type: toxicity
Reported conditions: read-out: Selectivity Index
# selectivity ratio binned as small value (below 0.5), mid value (0.5 to below 4), large value (4 or more)

Solved entries:
# Item smiles, Answer label
records = [
    ("O=C(Oc1ccc(Br)cc1C(=O)Nc1ccc(C(F)(F)F)cc1)c1cnc(Cl)cn1", "small value"),
    ("O=C(NCCCCl)Oc1ccc(Cl)cc1C(=O)Nc1ccc(C(=O)c2ccccc2)cc1", "small value"),
    ("O=C(NCCCCl)Oc1ccc(Br)cc1C(=O)Nc1ccc(C(F)(F)F)cc1", "large value"),
    ("O=C(NCCCl)Oc1ccc(Br)cc1C(=O)Nc1ccc(Cl)c(Cl)c1", "large value"),
    ("O=C(NCCCl)Oc1ccc(Cl)cc1C(=O)Nc1ccc(C(F)(F)F)cc1", "large value"),
]

Please classify: `CCCNC(=O)Oc1ccc(Cl)cc1C(=O)Nc1ccc(C(=O)c2ccccc2)cc1`
mid value

Class (by measured selectivity ratio) for `O=C(c1ccccc1)c1ccc(NC(=O)c2cc(Cl)ccc2O)cc1`
mid value

Which bin, given its selectivity ratio, does `O=C(Oc1ccc(Cl)cc1C(=O)Nc1ccc(C(F)(F)F)cc1)c1cnc(Cl)cn1` occupy?
small value

State the class of the compound shown: `O=C(NCCCl)Oc1ccc(Cl)cc1C(=O)Nc1ccc(Cl)c(Cl)c1`
mid value

---

Method: Selectivity index, ratio of IC50 for human MONO-MAC-6 cells to MIC for Mycobacterium tuberculosis H37Rv ATCC 27294
Format: toxicity
Reported conditions: read-out: Selectivity Index
# rule met = selectivity ratio below 5 (exclusive); rule not met = selectivity ratio at/above 5

# Item smiles, Answer label
records = [
    ("CCCNC(=O)Oc1ccc(Cl)cc1C(=O)Nc1ccc(Cl)c(Cl)c1", "rule not met"),
    ("O=C(NCCCCl)Oc1ccc(Br)cc1C(=O)Nc1ccc(C(=O)c2ccccc2)cc1", "rule met"),
    ("O=C(NCCCl)Oc1ccc(Br)cc1C(=O)Nc1ccc(C(=O)c2ccccc2)cc1", "rule met"),
    ("O=C(NCCCCl)Oc1ccc(Cl)cc1C(=O)Nc1ccc(C(=O)c2ccccc2)cc1", "rule met"),
    ("O=C(Oc1ccc(Cl)cc1C(=O)Nc1ccc(Cl)c(Cl)c1)c1cnc(Cl)cn1", "rule not met"),
]

Quick check: selectivity ratio of `O=C(NCCCl)Oc1ccc(Cl)cc1C(=O)Nc1ccc(Cl)c(Cl)c1` under 5?
rule met

Identify whether the compound `O=C(NCCCl)Oc1ccc(Cl)cc1C(=O)Nc1ccc(C(F)(F)F)cc1` records selectivity ratio below 5.
rule not met

Would you kindly verify if selectivity ratio of `CCCNC(=O)Oc1ccc(Cl)cc1C(=O)Nc1ccc(C(=O)c2ccccc2)cc1` is strictly less than 5?
rule met

selectivity ratio under 5? Item: `O=C(Nc1ccc(C(F)(F)F)cc1)c1cc(Br)ccc1O`
rule not met

---

Test system: Mycobacterium tuberculosis
Method: Antimycobacterial activity against Mycobacterium tuberculosis H37Rv ATCC 27294 after 28 days by serial dilution method
Type: functional
Reported conditions: Mycobacterium tuberculosis, H37Rv ATCC 27294, 672 h
Checkbox rule: MIC lower than 1 µM = condition met; MIC not lower than 1 µM = condition not met.

# Item smiles, Experimental system, Answer label
measured = [
    ("O=C(NCCCl)Oc1ccc(Cl)cc1C(=O)Nc1ccc(C(=O)c2ccccc2)cc1", "Mycobacterium tuberculosis", "condition not met"),
]

Consider `NNC(=O)c1ccncc1` . Does its MIC lie strictly below 1 µM?
condition not met

Strictly below 1 µM: is that where MIC of `CCCNC(=O)Oc1ccc(Cl)cc1C(=O)Nc1ccc(Cl)c(Cl)c1` sits?
condition met

---

System: Mycobacterium tuberculosis
Method: Antimycobacterial activity against Mycobacterium tuberculosis H37Rv ATCC 27294 after 28 days by serial dilution method
Type: functional
Reported conditions: Mycobacterium tuberculosis, H37Rv ATCC 27294, 672 h
This listing pairs compounds with measured MIC.
Give just the numeric value; µM need not be written.

# Item smiles, Experimental system, Measured result
data = [
    ("O=C(Oc1ccc(Br)cc1C(=O)Nc1ccc(C(F)(F)F)cc1)c1cnc(Cl)cn1", "Mycobacterium tuberculosis", 1),
    ("O=C(NCCCCl)Oc1ccc(Br)cc1C(=O)Nc1ccc(Cl)c(Cl)c1", "Mycobacterium tuberculosis", 0.4),
    ("O=C(Oc1ccc(Cl)cc1C(=O)Nc1ccc(C(F)(F)F)cc1)c1cnc(Cl)cn1", "Mycobacterium tuberculosis", 1.1),
    ("O=C(Nc1ccc(C(F)(F)F)cc1)c1cc(Br)ccc1O", "Mycobacterium tuberculosis", 1.4),
    ("O=C(NCCCl)Oc1ccc(Br)cc1C(=O)Nc1ccc(C(F)(F)F)cc1", "Mycobacterium tuberculosis", 0.4),
]

I would be grateful if you could share the reported MIC for `O=C(Oc1ccc(Cl)cc1C(=O)Nc1ccc(Cl)c(Cl)c1)c1cnc(Cl)cn1` .
1.1
